# Contribution of Gills to the fish's body burden per entry
- System: rainbow trout (Oncorhynchus mykiss)
- Procedure text: Contribution of tissues to fish body burden
- Type: in vivo
- Settings: fraction, Fish #5
Observation type: Contribution of Gills to the fish's body burden

In [3]: df
Out[3]:
         input_smiles  readout_number
0       CCCCCCCCCCCCN            0.32
1  CCCCCCCCCCCCCN(C)C            0.30
2   CCCCCCCCCCCCCCCCN            0.65
3          CCCCCCCCCN            0.35

---

- System: rainbow trout (Oncorhynchus mykiss)
- Procedure text: Contribution of tissues to fish body burden
- Format: in vivo
- Settings: fraction, Fish #1
Observation type: Contribution of Blood to the fish's body burden

>>> print(df.to_string())
                                   compound  result
0   CCCCCCCCCCCCCCCCN [P16, hexadecylamine]   0.013
1  CCCCCCCCCCCCCN(C)C [T13, N,N-dimethyltridecylamine]   0.038
2               CCCCCCCCCN [P9, Nonylamine]   0.016
3  CCCCCCCCCN(C)C [T9, N,N-dimethylnonylamine]   0.045

// data source = paper PMC7343282
